# TEST_DETAILS: Example 1: pharmacokinetics of Compound I, single (SD) and multiple (MD, q8h 7 days) ascending doses, 3-hour IV infusion, healthy adult subjects
# Assay type: in vivo, human
# RUN_CONDITIONS: human, plasma, intravenous, 250 mg, 250 mg multiple dose; read-out: T1/2 (converted)
ENDPOINT_LABEL: half-life (min)
I only need the number, in min, no unit after it.

Notebook: O=C(O)C[C@@H]1CC[C@H](NC(=O)Cc2cccs2)B(O)O1 , half-life read as 70.2

----------
# TEST_DETAILS: Example 6: noncompartmental plasma pharmacokinetics after third dose of the Combination (2 g meropenem/2 g Compound I q8h)
# RUN_CONDITIONS: both, human, plasma, intravenous, Tmax, meropenem 2 g q8h, All Subjects
ENDPOINT_LABEL: Tmax (h)
I only need the number, in h, no unit after it.

Notebook: C[C@@H](O)[C@H]1C(=O)N2C(C(=O)O)=C(S[C@@H]3CN[C@H](C(=O)N(C)C)C3)[C@H](C)[C@H]12 [meropenem, Meropenem] , Tmax read as 2.98
